Molecular target: UniProt:Q923Y8
Sequence (Q923Y8 whole entry): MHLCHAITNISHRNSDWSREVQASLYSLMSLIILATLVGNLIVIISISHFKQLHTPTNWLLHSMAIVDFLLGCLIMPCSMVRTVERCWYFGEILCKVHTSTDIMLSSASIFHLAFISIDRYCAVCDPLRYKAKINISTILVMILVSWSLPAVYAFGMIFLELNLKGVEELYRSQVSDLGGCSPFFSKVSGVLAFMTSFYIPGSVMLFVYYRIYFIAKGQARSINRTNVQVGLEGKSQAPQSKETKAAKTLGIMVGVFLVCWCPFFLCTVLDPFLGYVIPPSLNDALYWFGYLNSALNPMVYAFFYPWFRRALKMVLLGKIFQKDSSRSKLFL
Test: Radioligand binding assay on mouse TAAR1
pKi: −log10 of the molar value.
Kind request: treat 8 as inclusive, so pKi at 8 or higher is rule met, anything lower is rule not met.

O=C(Nc1ccc(Cl)nc1)c1ccc([C@H]2O[C@@H]3CN[C@H]2C3)cc1 : rule met
COCCCNc1ccc([C@H]2O[C@@H]3CN[C@H]2C3)cc1 : rule not met

* * *

Biological target: rat TAAR1 (Rattus norvegicus (Rat), UniProt Q923Y9)
Sequence (Q923Y9 whole entry): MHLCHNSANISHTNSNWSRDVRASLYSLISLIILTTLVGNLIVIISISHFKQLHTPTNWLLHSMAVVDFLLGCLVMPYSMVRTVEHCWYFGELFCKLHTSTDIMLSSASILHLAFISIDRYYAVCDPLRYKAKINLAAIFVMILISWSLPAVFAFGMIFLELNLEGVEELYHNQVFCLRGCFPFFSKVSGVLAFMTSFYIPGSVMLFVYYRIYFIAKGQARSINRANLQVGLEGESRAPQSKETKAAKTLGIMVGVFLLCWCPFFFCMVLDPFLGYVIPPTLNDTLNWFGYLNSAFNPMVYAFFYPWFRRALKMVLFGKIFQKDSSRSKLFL
Assay: Radioligand binding assay on rat TAAR1;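 also: membranes from HEK293 cells stably transfected with rat TAAR1, tritiated TAAR1 radioligand, 1 h incubation at 4 °C, nonspecific binding determined with excess unlabeled ligand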
pKi: −log10 of the molar value.
Each entry below lists one item and its recorded pKi value.
ENDPOINT NAME: pKi

O=C(Nc1ccc([C@H]2O[C@@H]3CN[C@H]2C3)cc1)c1ccc(OCC(F)(F)F)cn1 [Example 51] : 7.36
CCOc1ccc(C(=O)Nc2ccc([C@@H]3O[C@H]4CN[C@@H]3C4)cc2)cc1 [Example 28] : 6.75
CCOc1ccc(C(=O)Nc2ccc([C@H]3O[C@@H]4CN[C@H]3C4)cc2)cc1 [Example 17] : 6.16
Fc1ccc(CNc2ccc([C@H]3O[C@@H]4CN[C@H]3C4)cc2)cc1 [Example 40] : 6.72
FC(F)(F)COc1nccc(Nc2ccc([C@H]3O[C@@H]4CN[C@H]3C4)cc2)n1 [Example 80] : 5.97
O=C(Nc1cccc(Cl)c1)Nc1cccc([C@@H]2O[C@H]3CN[C@@H]2C3)c1 [Example 5] : 7.72
CCc1n[nH]c(C(=O)Nc2ccc([C@@H]3O[C@H]4CN[C@@H]3C4)cc2)c1Cl [Example 76] : 7.07
